These measurements were taken from ChEMBL document CHEMBL3351370.

test system: Liver microsome; assay: Stability in human liver microsomes assessed as metabolite formation at 8 uM at 37 degC in absence of NADPH and glucose-6-phosphate; assay type: ADME
Measured parameter: Stability

For orientation, consider the following solved cases.
1. C=CCOC(=O)c1cccnc1NC12CC3CC(CC(C3)C1)C2    Stable
2. CCCn1c(=O)c2cccnc2n(CCC)c1=O    Stable
3. CC(C)CCn1c(=O)c2cccnc2n(CCC(C)C)c1=O    Stable
4. C=CCNC(=O)c1cccnc1NC(C)(C)CC(C)(C)C    Stable
5. C=CCn1c(=O)c2cccnc2n(CC=C)c1=O    Stable

Asked: Reported Stability, molecule CC(C)CCNC(=O)c1cccnc1NCCC(C)C : ____
Given back: Stable

Asked: Reported Stability, molecule O=c1c2cccnc2n(Cc2ccccc2)c(=O)n1Cc1ccccc1 : ____
Given back: Stable

Asked: Reported Stability, molecule C=CCn1c(=O)c2cccnc2n(C2CCCCC2)c1=O : ____
Given back: Stable

Asked: Reported Stability, molecule O=C(NC1CCCCC1)c1cccnc1NC1CCCCC1 : ____
Given back: Stable

Asked: Reported Stability, molecule C=CCNC(=O)c1cccnc1NCC=C : ____
Given back: Stable
